test: Selectivity index, ratio of CC50 for HEL cells to EC50 for ACV-resistant thymidine kinase deficient Herpes simplex virus 1 KOS infected in HEL cells; assay type: toxicity, cell-based; details: human, read-out: Ratio CC50/EC50
quantity.kind: selectivity ratio

Please look up its selectivity ratio: CCCCCOC(=O)[C@@H](NP1(=O)CO[C@@H](Cn2cnc3c(N)ncnc32)CO1)[C@@H](C)CC (some centres not stated) > 4400

I am curious: what selectivity ratio value has been reported for CCCCCOC(=O)[C@H](Cc1ccccc1)NP1(=O)CO[C@@H](Cn2cnc3c(N)ncnc32)CO1 (some centres not stated) ? > 4400

---

Can you tell me pEC50 for the items I'm about to list?
tested on: Human alphaherpesvirus 1; test: Antiviral activity against ACV-resistant thymidine kinase deficient Herpes simplex virus 1 KOS infected in HEL cells assessed as inhibition of virus-induced cytopathic effect measured after 2 to 3 days post-infection; format: functional, organism-based; conditions: Human alphaherpesvirus 1, KOS
pEC50 (log units): -log10 of the concentration in mol/L.

Tell me reported pEC50 for CCCCCOC(=O)C[C@H](NP1(=O)CO[C@@H](Cn2cnc3c(N)ncnc32)CO1)C(=O)OCCCCC (some centres undefined) , tested with Human alphaherpesvirus 1. 8.14

Lab request: please report pEC50 under test system Human alphaherpesvirus 1 for CCCCCOC(=O)[C@@H](NP1(=O)CO[C@@H](Cn2cnc3c(N)ncnc32)CO1)[C@@H](C)CC (some centres undefined) 8.72

Please provide the recorded pEC50 for CCCCCOC(=O)[C@H](CC(C)C)NP1(=O)CO[C@@H](Cn2cnc3c(N)ncnc32)CO1 (some centres undefined) , tested on Human alphaherpesvirus 1. 8.89

Return pEC50 measured with Human alphaherpesvirus 1 given this molecule: CCCCCOC(=O)CC[C@H](NP1(=O)CO[C@@H](Cn2cnc3c(N)ncnc32)CO1)C(=O)OCCCCC (some centres undefined) 8.92

Form field - read-out: pEC50; system: Human alphaherpesvirus 1; submitted item: CCCCCOC(=O)[C@H](CCSC)NP1(=O)CO[C@@H](Cn2cnc3c(N)ncnc32)CO1 (some centres undefined) 8.24

Checklist item: pEC50 tested on Human alphaherpesvirus 1, entry CCCCCOC(=O)[C@H](Cc1ccccc1)NP1(=O)CO[C@@H](Cn2cnc3c(N)ncnc32)CO1 (some centres undefined) , value? 8.82

Query for Human alphaherpesvirus 1: what pEC50 does the record show for CCCCCOC(=O)CC(NP1(=O)COC(Cn2cnc3c(N)ncnc32)CO1)C(=O)OCCCCC (single isomer, unassigned) ? 7.12

Form entry - test system: Human alphaherpesvirus 1; read-out: pEC50; molecule: CCCCCOC(=O)[C@@H](NP1(=O)CO[C@@H](Cn2cnc3c(N)ncnc32)CO1)C(C)C (some centres undefined) 8.74

---

assay: Cytotoxicity against HEL cells assessed as morphological changes after 3 days by microscopic analysis; assay type: cell-based; settings: human
quantity.kind: MCC at 72 h (µM)
Write the answer as a number in µM, unit excluded.

Field request: MCC at 72 h | item: CCCCCOC(=O)CC[C@H](NP1(=O)CO[C@@H](Cn2cnc3c(N)ncnc32)CO1)C(=O)OCCCCC (stereo not given in full) 13.2

Please report the recorded MCC at 72 h for CCCCCOC(=O)[C@@H](NP1(=O)CO[C@@H](Cn2cnc3c(N)ncnc32)CO1)C(C)C (stereo not given in full) . 4.4

For CCCCCOC(=O)[C@H](C)NP1(=O)CO[C@@H](Cn2cnc3c(N)ncnc32)CO1 (stereo not given in full) , what is its reported MCC at 72 h? 23.5

// query MCC at 72 h value for entry CCCCCOC(=O)[C@@H](NP1(=O)CO[C@@H](Cn2cnc3c(N)ncnc32)CO1)[C@@H](C)CC (stereo not given in full) 9.96

What value of MCC at 72 h has been reported for the following molecule? CCCCCOC(=O)[C@@H](NP(=O)(CO[C@H](CO)Cn1cnc2c(N)ncnc21)N[C@H](C(=O)OCCCCC)C(C)C)C(C)C 8.57

What value of MCC at 72 h has been reported for the following molecule? CCCCCOC(=O)C[C@H](NP1(=O)CO[C@@H](Cn2cnc3c(N)ncnc32)CO1)C(=O)OCCCCC (stereo not given in full) 13.6

Would you mind telling me what MCC at 72 h value was observed for CCCCCOC(=O)[C@H](CC(C)C)NP1(=O)CO[C@@H](Cn2cnc3c(N)ncnc32)CO1 (stereo not given in full) ? 4.27

Quick check: MCC at 72 h of CCCCCOC(=O)[C@H](Cc1ccccc1)NP1(=O)CO[C@@H](Cn2cnc3c(N)ncnc32)CO1 (stereo not given in full) ? 9.29

Find the recorded MCC at 72 h belonging to CCCCCOC(=O)[C@H](CCSC)NP1(=O)CO[C@@H](Cn2cnc3c(N)ncnc32)CO1 (stereo not given in full) and report it. 4.11
